# System: DOPA liposome (artificial lipid membrane)
# methodSummary: Artificial lipid membrane binding by using Biacore S51 system
# testParameters: 50 μM compound, DOPA liposome on Sensor Chip L1, 37° C., PBS/5% DMSO (pH 7.4 or PH 6.0)
readoutName: Corrected value of binding response (RU)

chemicalStructure: CC(C)(C)CN1CCC2(CC1)CCN(C(=O)Cc1ccc(CN(Cc3ncc[nH]3)Cc3ncc[nH]3)cc1)C2
measurementTarget: DOPA liposome (artificial lipid membrane)
unitDescriptor: RU
Corrected value of binding response (RU): 77.6

chemicalStructure: CC(C)CN1CCC2(CCN(Cc3ccc(C(=O)N(Cc4ncc[nH]4)Cc4ncc[nH]4)cc3)CC2)C1
measurementTarget: DOPA liposome (artificial lipid membrane)
unitDescriptor: RU
Corrected value of binding response (RU): 66.6

chemicalStructure: CC(C)(C)CN1CCC2(CCN(Cc3ccc(C(=O)N(Cc4ncc[nH]4)Cc4ncc[nH]4)cc3)CC2)C1
measurementTarget: DOPA liposome (artificial lipid membrane)
unitDescriptor: RU
Corrected value of binding response (RU): 80.7

1. CCC(CC)N1CCC2(CCN(C(=O)c3ccc(CN(Cc4ncc[nH]4)Cc4nccn4C)cc3)C2)CC1
2. O=C(CC(=O)N1CCC2(CCN(C3CCCCC3)CC2)C1)N1CCC(N(Cc2ncc[nH]2)Cc2ncc[nH]2)CC1
# input Larger number for Corrected value of binding response (RU): 1 , or 2 ? Pick one; state its label.
# output 1

---

# measurementTarget: CXCR4 (Homo sapiens, UniProt P61073)
# Construct: a human T cell strain in which CXCR4 is known to be expressed; endogenous in cells
# Sequence (P61073 whole entry): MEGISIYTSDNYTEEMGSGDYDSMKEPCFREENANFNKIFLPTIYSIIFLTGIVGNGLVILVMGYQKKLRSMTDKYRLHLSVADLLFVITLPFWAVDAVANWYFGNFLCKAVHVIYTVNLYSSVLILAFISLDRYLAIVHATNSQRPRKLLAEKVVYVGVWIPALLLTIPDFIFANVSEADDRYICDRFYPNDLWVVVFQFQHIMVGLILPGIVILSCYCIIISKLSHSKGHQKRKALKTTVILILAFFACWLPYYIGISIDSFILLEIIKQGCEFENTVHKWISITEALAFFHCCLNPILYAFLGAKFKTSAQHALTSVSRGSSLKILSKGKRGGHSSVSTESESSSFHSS
# methodSummary: Study for inhibition of binding human SDF-1 to CEM cells (125I-SDF-1)
# testParameters: 125I-SDF-1 binding to CEM cells
readoutName: pIC50
// field semantics: pIC50 = negative decimal log of concentration (mol/L)

# input Please supply the value of reported pIC50 for the item CC(C)CN1CCC2(CCN(Cc3ccc(C(=O)N(Cc4ncc[nH]4)Cc4ncc[nH]4)cc3)CC2)C1
# output 7.82

---

# Tested on: CHL/IU (cell line derived from a Chinese hamster lung)
# methodSummary: Phospholipidosis detecting system using fluorescent labeling phospholipid analog (NBD-PE)
# Assay type: cell-based
# testParameters: compound dose: 50 μM; CHL/IU cells, about 24 hours, relative to NBD-PE control
readoutName: The rate of increase of phopholipid accumulation (%)
Reply numerically in %, unit not repeated.

In the examples that follow, each entry is paired with its recorded The rate of increase of phopholipid accumulation (%).
chemicalStructure: CC(C)CN1CCC2(CCN(Cc3ccc(C(=O)N(Cc4ncc[nH]4)Cc4ncc[nH]4)cc3)CC2)C1
unitDescriptor: %
observedResult: 10
--
chemicalStructure: O=C(CC(=O)N1CCC2(CCN(C3CCCCC3)CC2)C1)N1CCC(N(Cc2ncc[nH]2)Cc2ncc[nH]2)CC1
unitDescriptor: %
observedResult: 12
--
chemicalStructure: CCC(CC)N1CCC2(CCN(C(=O)c3ccc(CN(Cc4ncc[nH]4)Cc4nccn4C)cc3)C2)CC1
unitDescriptor: %
observedResult: 16

# input Please supply the value of reported The rate of increase of phopholipid accumulation (%) for the item CC(C)(C)CN1CCC2(CC1)CCN(C(=O)Cc1ccc(CN(Cc3ncc[nH]3)Cc3ncc[nH]3)cc1)C2
# output 18
